# assay_comment: Compound was tested for orally bioavailable in dogs with a half life of 0.7 hr
# Format: ADME, organism-based, Canis lupus familiaris
# experimental_context: dog, in vivo, po
readout: bioavailability (%)
Numbers only; they are read as %.

In plain terms, `N#CC1=C(c2cccc3ccccc23)CN(C(=O)Cc2cncn2Cc2ccc(C#N)cc2)CC1` has a documented bioavailability of 10

* * *

# target: Geranylgeranyl transferase type I (Homo sapiens, UniProt P49354+P53609)
# assay_comment: In vitro inhibition of geranylgeranyltransferase-1
readout: log10 IC50 (log10 of the value in µM)
# log10 transformed; quantity=IC50; unit=µM

In plain terms, `COC1=C(C#N)CCN(C(=O)Cc2cncn2Cc2ccc(C#N)c(-c3cccc4ccccc34)c2)C1` has a documented log10 IC50 of 0.43

In plain terms, Cn1cncc1C(c1ccc(C#N)cc1)N1CCC(C#N)=C(c2cccc3ccccc23)C1 (stereo not drawn) has a documented log10 IC50 of 2.21

In plain terms, `N#CC1=C(c2cccc3ccccc23)CN(C(=O)Cc2cncn2Cc2ccc(C#N)c(Cl)c2)CC1` has a documented log10 IC50 of 0.11

In plain terms, `Cn1cncc1CN(Cc1ccc(C#N)c(Br)c1)C(=O)N1CCC(C#N)=C(c2cccc3ccccc23)C1` has a documented log10 IC50 of 0.15

In plain terms, `Cn1cncc1CN(Cc1ccc(Cl)c(Cl)c1)C(=O)N1CCC(C#N)=C(c2cccc3ccccc23)C1` has a documented log10 IC50 of 0.18

In plain terms, `N#CC1=C(c2cccc3ccccc23)CN(C(=O)Cc2cncn2Cc2ccc(C#N)cc2)CC1` has a documented log10 IC50 of 0.65

In plain terms, `Cn1cncc1CN(Cc1ccc(C#N)cc1)C(=O)N1CCC(C#N)=C(c2cccc3ccccc23)C1` has a documented log10 IC50 of 0.60

In plain terms, Cn1cncc1C(O)(CN1CCC(C#N)=C(c2cccc3ccccc23)C1)c1ccc(C#N)cc1 (stereo not drawn) has a documented log10 IC50 of -0.27

In plain terms, `Cn1cncc1CN(Cc1cccc(C#N)c1)C(=O)N1CCC(C#N)=C(c2cccc3ccccc23)C1` has a documented log10 IC50 of 1.00

In plain terms, `N#CC1=C(c2cccc3ccccc23)CN(C(=O)CCc2cncn2Cc2ccc(C#N)cc2)CC1` has a documented log10 IC50 of 0.11

In plain terms, `CN(Cc1ccc(C#N)cc1)[C@H](Cc1cncn1C)C(=O)N1CCC(C#N)=C(c2cccc3ccccc23)C1` has a documented log10 IC50 of 0.20

In plain terms, Cn1cncc1C(NN1CCC(C#N)=C(c2cccc3ccccc23)C1)c1ccc(C#N)cc1 (stereo not drawn) has a documented log10 IC50 of -0.22

* * *

# target: Protein farnesyltransferase (Mus musculus, UniProt Q61239+Q8K2I1)
# assay_comment: Inhibition of Ras farnesylation in Human Ha-Ras oncogene-transformed BALB/c 3T3 cells (EJ3 cells)
pEC50: −log10 of the molar value.
Assign pEC50 to each entry below.

In plain terms, `N#CC1=C(c2cccc3ccccc23)CN(C(=O)Cc2cncn2Cc2ccc(Cl)cc2)CC1` has a documented pEC50 of < 7.00

In plain terms, `COC1=C(C#N)CCN(C(=O)Cc2cncn2Cc2ccc(C#N)c(-c3cccc4ccccc34)c2)C1` has a documented pEC50 of < 7.00

In plain terms, `Cn1cncc1CN(Cc1ccc(C#N)c(Br)c1)C(=O)N1CCC(C#N)=C(c2cccc3ccccc23)C1` has a documented pEC50 of < 9.00

In plain terms, `CN(Cc1ccc(C#N)cc1)[C@H](Cc1cncn1C)C(=O)N1CCC(C#N)=C(c2cccc3ccccc23)C1` has a documented pEC50 of < 7.00

In plain terms, `N#CC1=C(c2cccc3ccccc23)CN(C(=O)Cc2cncn2Cc2ccc(C#N)c(Cl)c2)CC1` has a documented pEC50 of < 7.00
